Source listed as paper PMC13114161.

The entries below come with measured inhibition at 5 min, 10 µM values attached.
target: hERG (Homo sapiens); construct: host or cells: CHO-K1; test: QPatch ion channel assay; type: cell-based; settings: CHO-K1 cells stably transfected with human hERG, read-out: % Inhibition (n = 2), hERG
Sequence (Q12809 whole entry): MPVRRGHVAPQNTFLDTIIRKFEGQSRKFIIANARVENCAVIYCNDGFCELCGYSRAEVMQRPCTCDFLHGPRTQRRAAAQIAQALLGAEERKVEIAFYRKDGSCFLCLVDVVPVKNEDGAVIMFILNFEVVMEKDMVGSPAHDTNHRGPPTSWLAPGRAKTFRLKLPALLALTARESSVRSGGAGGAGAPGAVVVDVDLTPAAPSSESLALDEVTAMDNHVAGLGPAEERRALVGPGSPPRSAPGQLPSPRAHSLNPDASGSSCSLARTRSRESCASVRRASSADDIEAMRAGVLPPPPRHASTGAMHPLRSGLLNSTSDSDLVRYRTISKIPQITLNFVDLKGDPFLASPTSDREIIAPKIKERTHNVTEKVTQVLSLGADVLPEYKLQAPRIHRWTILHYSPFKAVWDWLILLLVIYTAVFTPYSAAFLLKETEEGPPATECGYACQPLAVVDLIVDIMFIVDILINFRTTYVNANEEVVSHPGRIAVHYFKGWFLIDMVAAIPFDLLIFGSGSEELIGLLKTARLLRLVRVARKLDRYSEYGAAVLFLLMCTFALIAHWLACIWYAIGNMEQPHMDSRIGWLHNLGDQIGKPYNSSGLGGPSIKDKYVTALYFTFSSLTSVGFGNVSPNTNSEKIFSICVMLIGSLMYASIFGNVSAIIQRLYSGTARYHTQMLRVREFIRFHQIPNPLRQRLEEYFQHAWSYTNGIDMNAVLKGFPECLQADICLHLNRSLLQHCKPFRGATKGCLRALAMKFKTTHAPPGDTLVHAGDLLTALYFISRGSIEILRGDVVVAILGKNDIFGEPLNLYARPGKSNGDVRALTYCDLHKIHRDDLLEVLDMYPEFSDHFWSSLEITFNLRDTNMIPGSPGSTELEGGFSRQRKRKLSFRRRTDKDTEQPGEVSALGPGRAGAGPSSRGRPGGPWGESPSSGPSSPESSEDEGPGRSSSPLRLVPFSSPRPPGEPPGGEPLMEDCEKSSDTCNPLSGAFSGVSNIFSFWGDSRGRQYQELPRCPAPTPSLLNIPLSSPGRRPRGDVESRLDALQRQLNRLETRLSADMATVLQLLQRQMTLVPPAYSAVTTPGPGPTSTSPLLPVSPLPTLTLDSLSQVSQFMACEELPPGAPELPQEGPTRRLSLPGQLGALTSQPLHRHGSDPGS
Give the quantity in %, number only.

MOLECULE: NCC(F)C[C@@H](N)CNC(=O)c1cc2ccc(-c3ccc(F)cc3)cc2[nH]1 (some centres unmarked)
MEASUREMENT UNIT: %
inhibition at 5 min, 10 µM: 10.9

Looking for the measured inhibition at 5 min, 10 µM of `NC[C@@H]1CN[C@H](CNC(=O)c2cc3ccc(-c4ccc(F)cc4)cc3[nH]2)C1` , can you help?
9.2

---

target: CYP3A4 (Homo sapiens, UniProt P08684)
Sequence (P08684 whole entry): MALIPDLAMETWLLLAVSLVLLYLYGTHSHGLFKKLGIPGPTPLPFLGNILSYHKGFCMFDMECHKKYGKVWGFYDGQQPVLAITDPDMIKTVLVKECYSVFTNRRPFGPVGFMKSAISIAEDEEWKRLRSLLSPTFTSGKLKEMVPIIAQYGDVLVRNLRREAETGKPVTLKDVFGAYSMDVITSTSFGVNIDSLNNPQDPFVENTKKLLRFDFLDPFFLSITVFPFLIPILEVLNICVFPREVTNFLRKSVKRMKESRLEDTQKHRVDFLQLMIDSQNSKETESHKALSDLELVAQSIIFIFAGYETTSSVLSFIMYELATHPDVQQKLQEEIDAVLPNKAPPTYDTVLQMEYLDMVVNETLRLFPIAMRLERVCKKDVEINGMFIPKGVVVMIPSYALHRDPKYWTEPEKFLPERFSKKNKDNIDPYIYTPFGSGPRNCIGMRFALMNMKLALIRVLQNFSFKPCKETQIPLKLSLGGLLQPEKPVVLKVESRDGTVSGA
READOUT LABEL: IC50 (µM)
Response body: numeric value in µM, unit text excluded.

Entry under review: NCC(F)C[C@@H](N)CNC(=O)c1cc2ccc(-c3ccc(F)cc3)cc2[nH]1 (stereo partly shown) . Reported IC50?
63

---

assay: Plasma protein binding (equilibrium dialysis); format: in vitro ADME; conditions: rat
READOUT LABEL: fraction unbound

# fraction unbound lookup, item NCC(F)C[C@@H](N)CNC(=O)c1cc2ccc(-c3ccc(F)cc3)cc2[nH]1 (stereo partly shown)
0.015

---

system: P. aeruginosa; assay: MIC potentiation of antimicrobial agents by EPIs; assay type: cell-based, Pseudomonas aeruginosa; conditions: TXA11114 at […]; also: TXA11114 at 6.25 µg/mL
READOUT LABEL: MIC of antibiotic + TXA11114 (µg/mL)
Give the value, in units of µg/mL, as a plain number.

Reference set (3 entries):
COMPOUND: C[C@H]1c2cccc(O)c2C(=O)C2=C(O)[C@]3(O)C(=O)C(C(N)=O)=C(O)[C@@H](N(C)C)[C@@H]3[C@@H](O)[C@@H]21
MIC of antibiotic + TXA11114 / µg/mL: 4
--
COMPOUND: CC(C)(O/N=C(\C(=O)N[C@@H]1C(=O)N2C(C(=O)[O-])=C(C[n+]3ccccc3)CS[C@H]12)c1csc(N)n1)C(=O)O
MIC of antibiotic + TXA11114 / µg/mL: 0.5
--
COMPOUND: Nc1nc(/C(=N/O)C(=O)N[C@@H]2C(=O)N3C(C(=O)O)=C(/C=C4\CCN([C@@H]5CCNC5)C4=O)CS[C@H]23)ns1
MIC of antibiotic + TXA11114 / µg/mL: 2

Find the recorded MIC of antibiotic + TXA11114 belonging to `C[C@@H](O)[C@H]1C(=O)N2C(C(=O)O)=C(SCCN=CN)C[C@H]12` and report it.
4

And then CO/N=C(\C(=O)N[C@@H]1C(=O)N2C(C(=O)[O-])=C(C[N+]3(C)CCCC3)CS[C@H]12)c1csc(N)n1 [Cefepime] , what is it?
0.5

Now try `CO/N=C(\C(=O)N[C@@H]1C(=O)N2C(C(=O)[O-])=C(C[n+]3cccc4c3CCC4)CS[C@H]12)c1csc(N)n1` .
2

// repeat for CNC(C)C1CCC(N)C(OC2C(N)CC(N)C(OC3OCC(C)(O)C(NC)C3O)C2O)O1 (stereo not shown) and report
2

---

biological target: CYP2C9 (Homo sapiens, UniProt P11712); construct: from tissue; host or cells: human liver microsomes; assay: Cytochrome P450 inhibition; format: in vitro ADME; details: probe diclofenac; human liver microsomes; read-out: CYP Inhibition IC50, 2C9
Sequence (P11712 whole entry): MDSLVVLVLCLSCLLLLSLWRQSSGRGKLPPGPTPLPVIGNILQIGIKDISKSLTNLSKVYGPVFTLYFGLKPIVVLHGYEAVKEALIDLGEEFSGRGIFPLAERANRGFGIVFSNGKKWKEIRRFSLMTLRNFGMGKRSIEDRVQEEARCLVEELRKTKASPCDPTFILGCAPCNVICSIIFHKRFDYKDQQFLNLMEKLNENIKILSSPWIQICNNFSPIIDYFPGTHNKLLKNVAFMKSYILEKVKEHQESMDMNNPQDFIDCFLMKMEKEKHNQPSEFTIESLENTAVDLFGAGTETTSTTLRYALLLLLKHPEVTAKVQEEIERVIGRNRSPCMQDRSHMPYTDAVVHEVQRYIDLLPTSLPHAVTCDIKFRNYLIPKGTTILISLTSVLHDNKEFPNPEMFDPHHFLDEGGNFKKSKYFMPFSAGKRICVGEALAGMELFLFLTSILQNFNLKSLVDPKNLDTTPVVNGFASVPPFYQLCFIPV
READOUT LABEL: IC50 at 10 min

Form: Entry = `NC[C@@H]1CN[C@H](CNC(=O)c2cc3ccc(-c4ccc(F)cc4)cc3[nH]2)C1` | System = CYP2C9 (Homo sapiens, UniProt P11712) | IC50 at 10 min = ____
> 100 µM
